# ASSAY INFO: Agonist activity at human MC1b receptor
# Assay type: functional
TEST READOUT: EC50 (µM)

Worked set:
{"MOLECULE": "Cc1cc2c(cc1Cl)C1(CCN(C(=O)[C@@H]3CN(C(C)(C)C)C[C@H]3c3ccc(F)cc3F)CC1)CC2C(C)(C)c1nnco1 (stereo in doubt; 5d2)", "QUANTITATIVE RESULT": 0.138}
{"MOLECULE": "Cc1nc(C(C)(C)C2CC3(CCN(C(=O)[C@@H]4CN(C(C)(C)C)C[C@H]4c4ccc(F)cc4F)CC3)c3cc(Cl)c(C)cc32)no1 (stereo partly specified)", "QUANTITATIVE RESULT": 0.855}
{"MOLECULE": "Cc1cc2c(cc1Cl)C1(CCN(C(=O)[C@@H]3CCN(C(C)(C)C)C[C@H]3c3ccc(F)cc3F)CC1)C[C@@H]2C(C)(C)c1ncnn1C", "QUANTITATIVE RESULT": 1.05}
{"MOLECULE": "Cc1cc2c(cc1Cl)C1(CCN(C(=O)[C@@H]3CC(N(C)C4CCOCC4)C[C@H]3c3ccc(F)cc3F)CC1)C[C@@H]2C(C)(C)c1ncnn1C (stereo partly specified)", "QUANTITATIVE RESULT": 0.25}

P = Cc1cc2c(cc1Cl)C1(CCN(C(=O)[C@@H]3CN(C(C)(C)C)C[C@H]3c3ccc(F)cc3F)CC1)C[C@@H]2C(C)(C)c1ncnn1C
Q = Cc1cnc(C(C)(C)[C@H]2CC3(CCN(C(=O)[C@@H]4CN(C(C)(C)C)C[C@H]4c4ccc(F)cc4F)CC3)c3cc(Cl)c(C)cc32)o1
Problem: Which record shows the lower EC50: the first, P , or the second, Q ? Pick one; state its label.
Result: P
(P: 0.125 µM, Q: 1.65 µM)

----------
Measured inhibition in vivo at 20 mg/kg by item
# System: Mus musculus
# ASSAY INFO: Reduction in food intake in DIO mouse obesity model at 20 mg/kg, po after 4 hrs
# Format: functional
Give the number; % is assumed, so skip it.

Worked set:
{"COMPOUND": "Cc1cc2c(cc1Cl)C1(CCN(C(=O)[C@@H]3CN(C4CCOCC4)C[C@H]3c3ccc(F)cc3F)CC1)C[C@@H]2C(C)(C)c1ncnn1C", "inhibition in vivo at 20 mg/kg, %": 31}
{"COMPOUND": "Cc1cc2c(cc1Cl)C1(CCN(C(=O)[C@@H]3CN(C(C)(C)C)C[C@H]3c3ccc(F)cc3F)CC1)C[C@@H]2C(C)(C)c1ncnn1C", "inhibition in vivo at 20 mg/kg, %": 38}
{"COMPOUND": "Cc1cc2c(cc1Cl)C1(CCN(C(=O)[C@@H]3CC(N(C)C4CCOCC4)C[C@H]3c3ccc(F)cc3F)CC1)C[C@@H]2C(C)(C)c1ncnn1C (some centres undefined)", "inhibition in vivo at 20 mg/kg, %": 39}

Problem: Identify the reported inhibition in vivo at 20 mg/kg for the following entry. `Cc1cc2c(cc1Cl)C1(CCN(C(=O)[C@@H]3CCN(C(C)(C)C)C[C@H]3c3ccc(F)cc3F)CC1)C[C@@H]2C(C)(C)c1ncnn1C`
Result: 30

----------
# ASSAY INFO: Oral bioavailability in Sprague-Dawley rat at 1 mg/kg, iv and 4 mg/kg, po
# Type: ADME, organism-based
# PROTOCOL CONDITIONS: in vivo
TEST READOUT: bioavailability (%)

Worked set:
{"COMPOUND": "Cc1cc2c(cc1Cl)C1(CCN(C(=O)[C@@H]3CC(N(C)C4CCOCC4)C[C@H]3c3ccc(F)cc3F)CC1)C[C@@H]2C(C)(C)c1ncnn1C (some centres undefined)", "TEST READOUT": "bioavailability", "QUANTITATIVE RESULT": 20}
{"COMPOUND": "Cc1cc2c(cc1Cl)C1(CCN(C(=O)[C@@H]3CN(C4CCOCC4)C[C@H]3c3ccc(F)cc3F)CC1)C[C@@H]2C(C)(C)c1ncnn1C", "TEST READOUT": "bioavailability", "QUANTITATIVE RESULT": 35}

I = Cc1cc2c(cc1Cl)C1(CCN(C(=O)[C@@H]3CN(C(C)(C)C)C[C@H]3c3ccc(F)cc3F)CC1)C[C@@H]2C(C)(C)c1ncnn1C
II = Cc1cc2c(cc1Cl)C1(CCN(C(=O)[C@@H]3CCN(C(C)(C)C)C[C@H]3c3ccc(F)cc3F)CC1)C[C@@H]2C(C)(C)c1ncnn1C
Problem: Select the item with the higher value of bioavailability from the options I and II listed. Pick one; state its label.
Result: II

----------
# Species on record: Homo sapiens
# ASSAY INFO: Agonist activity at human MC1b receptor assessed as receptor activation
# Format: functional
# Parameters: concentration or dose not given beside the values
TEST READOUT: Activity (%)

{"COMPOUND": "Cc1cc2c(cc1Cl)C1(CCN(C(=O)[C@@H]3CCN(C(C)(C)C)C[C@H]3c3ccc(F)cc3F)CC1)C[C@@H]2C(C)(C)c1ncnn1C", "TEST READOUT": "Activity", "QUANTITY UNIT": "%", "QUANTITATIVE RESULT": 37}

I = Cc1cc2c(cc1Cl)C1(CCN(C(=O)[C@@H]3CN(C(C)(C)C)C[C@H]3c3ccc(F)cc3F)CC1)C[C@@H]2C(C)(C)c1ncnn1C
II = Cc1cc2c(cc1Cl)C1(CCN(C(=O)[C@@H]3CC(N(C)C4CCOCC4)C[C@H]3c3ccc(F)cc3F)CC1)C[C@@H]2C(C)(C)c1ncnn1C (some centres undefined)
III = Cc1cc2c(cc1Cl)C1(CCN(C(=O)[C@@H]3CN(C(C)(C)C)C[C@H]3c3ccc(F)cc3F)CC1)CC2C(C)(C)c1nnco1 (stereo in doubt; 5d1)
Problem: Order these by Activity, descending, and give the full ranking. // format: requested-order list of labels
Result: I, II, III
(I: 80%, II: 49%, III: 10%)

----------
Measured inhibition in vivo at 6 mg/kg by item
# System: Mus musculus
# ASSAY INFO: Reduction in food intake in DIO mouse obesity model at 6 mg/kg, po after 18 hrs
# Format: functional
Give the number; % is assumed, so skip it.

Worked set:
{"MOLECULE": "Cc1cc2c(cc1Cl)C1(CCN(C(=O)[C@@H]3CN(C(C)(C)C)C[C@H]3c3ccc(F)cc3F)CC1)C[C@@H]2C(C)(C)c1ncnn1C", "inhibition in vivo at 6 mg/kg (%)": 27}
{"MOLECULE": "Cc1cc2c(cc1Cl)C1(CCN(C(=O)[C@@H]3CN(C4CCOCC4)C[C@H]3c3ccc(F)cc3F)CC1)C[C@@H]2C(C)(C)c1ncnn1C", "inhibition in vivo at 6 mg/kg (%)": 18}
{"MOLECULE": "Cc1cc2c(cc1Cl)C1(CCN(C(=O)[C@@H]3CCN(C(C)(C)C)C[C@H]3c3ccc(F)cc3F)CC1)C[C@@H]2C(C)(C)c1ncnn1C", "inhibition in vivo at 6 mg/kg (%)": 31}

Problem: Identify the reported inhibition in vivo at 6 mg/kg for the following entry. Cc1cc2c(cc1Cl)C1(CCN(C(=O)[C@@H]3CC(N(C)C4CCOCC4)C[C@H]3c3ccc(F)cc3F)CC1)C[C@@H]2C(C)(C)c1ncnn1C (some centres undefined)
Result: 28

----------
Measured inhibition in vivo at 20 mg/kg by item
# Test system: Mus musculus
# ASSAY INFO: Reduction in food intake in wild type mouse at 20 mg/kg, po after 4 hrs
# Assay type: functional
Give the number; % is assumed, so skip it.

Worked set:
{"COMPOUND": "Cc1cc2c(cc1Cl)C1(CCN(C(=O)[C@@H]3CCN(C(C)(C)C)C[C@H]3c3ccc(F)cc3F)CC1)C[C@@H]2C(C)(C)c1ncnn1C", "QUANTITY UNIT": "%", "QUANTITATIVE RESULT": 24}
{"COMPOUND": "Cc1cc2c(cc1Cl)C1(CCN(C(=O)[C@@H]3CN(C(C)(C)C)C[C@H]3c3ccc(F)cc3F)CC1)C[C@@H]2C(C)(C)c1ncnn1C", "QUANTITY UNIT": "%", "QUANTITATIVE RESULT": 24}
{"COMPOUND": "Cc1cc2c(cc1Cl)C1(CCN(C(=O)[C@@H]3CC(N(C)C4CCOCC4)C[C@H]3c3ccc(F)cc3F)CC1)C[C@@H]2C(C)(C)c1ncnn1C (some centres undefined)", "QUANTITY UNIT": "%", "QUANTITATIVE RESULT": 35}

Let's switch to this compound now.
Problem: Identify the reported inhibition in vivo at 20 mg/kg for the following entry. `Cc1cc2c(cc1Cl)C1(CCN(C(=O)[C@@H]3CN(C4CCOCC4)C[C@H]3c3ccc(F)cc3F)CC1)C[C@@H]2C(C)(C)c1ncnn1C`
Result: 28
